test system: UGTs (S-oxazepam glucuronidation in HLM); experiment: Inhibition of R- and S-oxazepam glucuronidation in human liver microsomes; details: human, human liver microsomes, pH 7.4, IC50, S-Oxazepam Glucuronide
MEASURED ATTRIBUTE: IC50 at 2 h (µM)
One number for each entry, in µM.

Exercise: Would you mind telling me what IC50 at 2 h value was observed for C=C(C)[C@@H]1CCC(C)=C[C@H]1c1c(O)cc(CCCCC)cc1O ?
Solution: 87

---

tested on: UGTs (R-oxazepam glucuronidation in HKM); assay: Inhibition of R- and S-oxazepam glucuronidation in human kidney microsomes; conditions: human, human kidney microsomes, pH 7.4, IC50,u, R-Oxazepam Glucuronide, IC50 corrected with fu,inc
MEASURED ATTRIBUTE: IC50 at 2 h

Exercise: Would you mind telling me what IC50 at 2 h value was observed for C=C(C)[C@@H]1CCC(C)=C[C@H]1c1c(O)cc(CCCCC)cc1O ?
Solution: 360 nM
